From: the supplement of paper PMC12764529

# ASSAY NAME: folding stability dG unfold from chymotrypsin proteolysis; higher = more stable
ENDPOINT NAME: folding stability dG unfold

>>> print(df.to_string())
                              sequence_text  experimental_result
0  SMKITLEKGNYKIEIYKHPETGEIIAKVYDKNGKLVAVAHIKIEVEPDKDGKKIIKKIEIHVHILKEDPKSA [r9_262_TrMRF]        3.77 kcal/mol
1  SAGGLGTDSTVPTLTLSVPVLVPTADGSPRELTVRVTIRAPVRLNPPTGELEIGDVEVSVEVFDPSLLSAGG [r13_312_TrMRF]        3.73 kcal/mol
2  SAGMIEINNVTPNYVMIKIWNPDNGKKWEIPIQYERDNGKPYSKDKALEEIKDIAKEFYPDFDIEVEPVSAG [r5_293_TrROS]       0.727 kcal/mol
3  SAIEITVMSDSPEEAKEKAKEFANWLQNRMRRDGLPDMPIPIKIEVIPVPPPKPKPKRDPDDGEWKPDPSAG [r14_475_TrROS]       0.731 kcal/mol
4  SAGGSAGGSAKPTYRVLVKNEDGEVLEAEVKVVDGKVEVTVNGKVYTFPKGAKIEIVKIEPVSAGGSAGGSA [r18_144_TrROS_Hall]        2.92 kcal/mol
5  SAGGSAGGSAKPNKKFKFELVEVKEIEIYDKETNEKVYKISVAKVRLEDGSLLTFISIEEKSAGGSAGGSAG [r3_166_TrROS_Hall]        3.78 kcal/mol
6  SMKEVEKREFPDGTTVTFSKSSSPVITIKVTTYSPVPNTSELSSSESTYTFPLPPGKPLTLEEVLKKVLESA [r9_614_JUSTAS]        1.38 kcal/mol
